- Tested target: Microphthalmia-associated transcription factor (Homo sapiens)
- Sequence (O75030 whole entry): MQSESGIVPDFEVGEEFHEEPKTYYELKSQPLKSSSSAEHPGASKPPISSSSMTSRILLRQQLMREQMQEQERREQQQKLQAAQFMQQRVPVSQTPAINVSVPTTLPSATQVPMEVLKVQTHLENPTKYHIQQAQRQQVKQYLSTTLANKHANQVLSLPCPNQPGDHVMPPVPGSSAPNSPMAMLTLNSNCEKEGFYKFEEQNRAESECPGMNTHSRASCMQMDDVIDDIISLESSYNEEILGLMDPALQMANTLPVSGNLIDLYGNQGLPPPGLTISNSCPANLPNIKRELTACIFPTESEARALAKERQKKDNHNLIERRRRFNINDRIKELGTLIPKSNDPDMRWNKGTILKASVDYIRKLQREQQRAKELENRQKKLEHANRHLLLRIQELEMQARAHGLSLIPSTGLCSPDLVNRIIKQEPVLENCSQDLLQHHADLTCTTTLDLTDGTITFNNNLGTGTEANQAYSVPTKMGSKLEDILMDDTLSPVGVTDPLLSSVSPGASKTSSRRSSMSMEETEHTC
- Experiment summary: TRPM1 promoter luciferase signal decrease, dose response, MITF inhibitor project, cell-based, SK-MEL-5, cherry-picked, set 3 (AID 493073);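 note: SK-MEL-5 melanoma cells with luciferase driven by the MITF target TRPM1 promoter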
- Type: functional
Active and inactive are the calls of the source.
Outcome measure: AC50

Sample records with AC50:
[[record]]
compound = "CC1=NC(=O)C(N=Nc2cccc(C(=O)O)c2)N1c1ccccc1 (stereo unspecified)"
outcome_measure = "AC50"
measurement = "8.62 µM (active)"

[[record]]
compound = "O=c1c(Cl)c(Cl)cnn1Cc1ccc(F)cc1"
outcome_measure = "AC50"
measurement = "8.9 µM (active)"

[[record]]
compound = "Oc1c(CN2CCCCC2)cc(COCc2ccccc2)c2cccnc12"
outcome_measure = "AC50"
measurement = "2.17 µM (active)"

[[record]]
compound = "O=C(N/N=C/c1cc(Cl)ccc1O)c1ccncc1"
outcome_measure = "AC50"
measurement = "8.98 µM (active)"


Batch lookup, AC50 per entry.
1. Cc1ccccc1-n1ncc2c([N+](=O)[O-])cc([N+](=O)[O-])cc21
2. O=C(Nc1cc(-c2nc3ncccc3o2)ccc1Cl)c1ccc([N+](=O)[O-])o1

8.7 µM (active)
5.76 µM (active)

---

- Tested target: Protein RecA (Mycobacterium tuberculosis, UniProt P9WHJ3)
- Experiment summary: Fluorescence Cell-Free Homogeneous Dose Retest to Identify Inhibitors of RecA-Intein Splicing Activity. [Related pubchem assays (depositor defined):AID2097, AID2223, AID489010, AID492950]
- Format: functional
Activity calls are given as the source filed them.
What EC50 was measured for each of the following?

[[record]]
compound = "CCOC1(OCC)C(c2ccc(Cl)cc2)C(C#N)(C#N)C1(OCC)OCC (stereo unspecified)"
outcome_measure = "EC50"
measurement = "> 380 µM (inconclusive)"

[[record]]
compound = "CC1=C/C(=N/c2c(C)n(C)n(-c3ccccc3)c2=O)C=CC1=O"
outcome_measure = "EC50"
measurement = "14 µM (active)"

[[record]]
compound = "COc1cccc(/C=N/Nc2cc(C)nc(-c3ccccc3O)n2)c1O"
outcome_measure = "EC50"
measurement = "357 µM (inconclusive)"

[[record]]
compound = "CC(C)(C)c1cnnn1-c1ccc(C(=O)CCl)cc1"
outcome_measure = "EC50"
measurement = "2.89 µM (active)"

[[record]]
compound = "Oc1nnc(Sc2ncnc3sccc23)n1CCc1ccccc1"
outcome_measure = "EC50"
measurement = "18 µM (active)"

[[record]]
compound = "CCC(C)N(CC(=O)Nc1cccc(C)c1C)C(=O)CCl (stereo unspecified)"
outcome_measure = "EC50"
measurement = "8.81 µM (active)"

[[record]]
compound = "OC1=C(/C=N/c2ccc3c(c2)OCO3)CCc2ccccc21"
outcome_measure = "EC50"
measurement = "0.43 µM (active)"

[[record]]
compound = "COc1ccc2noc3c2c1C(=O)c1ccccc1-3"
outcome_measure = "EC50"
measurement = "3.61 µM (active)"

[[record]]
compound = "Cc1n[nH]c2c1C(c1c(C)nn(-c3ccccc3)c1C)C(C#N)=C(N)O2 (stereo unspecified)"
outcome_measure = "EC50"
measurement = "12.5 µM (active)"

[[record]]
compound = "Cc1ccccc1-n1ncc2c([N+](=O)[O-])cc([N+](=O)[O-])cc21"
outcome_measure = "EC50"
measurement = "0.911 µM (active)"


// sample O=c1c(Cl)c(Cl)cnn1Cc1ccc(F)cc1 , its EC50 was 11.3 µM (active)

---

- Tested target: UniProt:Q9H0H5
- Sequence (Q9H0H5 whole entry): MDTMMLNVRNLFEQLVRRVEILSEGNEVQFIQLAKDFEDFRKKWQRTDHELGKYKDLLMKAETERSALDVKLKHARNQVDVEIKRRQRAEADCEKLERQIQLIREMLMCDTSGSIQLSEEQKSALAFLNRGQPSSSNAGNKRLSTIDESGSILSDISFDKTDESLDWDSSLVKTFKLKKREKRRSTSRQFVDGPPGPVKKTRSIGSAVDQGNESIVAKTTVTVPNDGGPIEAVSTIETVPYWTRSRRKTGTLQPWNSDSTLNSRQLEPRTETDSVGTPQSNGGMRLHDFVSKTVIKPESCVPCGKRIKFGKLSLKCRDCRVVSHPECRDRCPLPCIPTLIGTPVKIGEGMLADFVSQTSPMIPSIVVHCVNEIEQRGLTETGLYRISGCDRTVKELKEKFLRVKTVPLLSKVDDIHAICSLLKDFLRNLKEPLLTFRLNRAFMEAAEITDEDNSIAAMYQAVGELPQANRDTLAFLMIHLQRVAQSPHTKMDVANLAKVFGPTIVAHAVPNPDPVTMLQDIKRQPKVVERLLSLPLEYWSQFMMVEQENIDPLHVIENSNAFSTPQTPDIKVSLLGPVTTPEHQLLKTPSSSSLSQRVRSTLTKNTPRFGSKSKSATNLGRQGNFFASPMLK
- Experiment summary: MgcRacGAP GTPase-activating activity inhibitors, confirmation, biochemical, ADP Hunter fluorescence, primary and confirmatory (AID 624330)
- Assay type: functional
The source made the active and inactive calls.
Outcome measure: IC50

[[record]]
compound = "Oc1ccc(NC(S)=Nc2ccc(F)cc2)cc1"
outcome_measure = "IC50"
measurement = "67.5 µM (active)"

[[record]]
compound = "CCN(CC)CCOC(=O)c1ccc(N/C=C(/C#N)c2nc(-c3ccc4c(c3)OCO4)cs2)cc1"
outcome_measure = "IC50"
measurement = "120 µM (active)"

[[record]]
compound = "COc1cccc(OC)c1C(=O)N1CCN(Cc2cccnc2)CC1"
outcome_measure = "IC50"
measurement = "203 µM (active)"

[[record]]
compound = "COc1ccc(Br)cc1CN(C)CC(=O)NCCc1ccccc1"
outcome_measure = "IC50"
measurement = "95.5 µM (active)"

[[record]]
compound = "Cc1cc(-c2ccccc2)nc2c(Br)c(=O)[nH]n12"
outcome_measure = "IC50"
measurement = "210 µM (active)"

[[record]]
compound = "C/N=C\\c1cc(-c2ccccc2)sc1O"
outcome_measure = "IC50"
measurement = "199 µM (active)"

[[record]]
compound = "O=[N+]([O-])c1ccc(N2CCN(c3ccc(O)cc3)CC2)c(Cl)c1"
outcome_measure = "IC50"
measurement = "45 µM (active)"

[[record]]
compound = "CCN1CCCC1CNCC(=O)Nc1ccc(OC(F)(F)F)cc1 (stereo unspecified)"
outcome_measure = "IC50"
measurement = "115 µM (active)"

[[record]]
compound = "O=C1NC(=O)N(c2ccccc2)C(=O)/C1=C/c1coc2ccc(O)cc2c1=O"
outcome_measure = "IC50"
measurement = "110 µM (active)"

[[record]]
compound = "CC1C(=O)NN=C1C(=O)N/N=C\\c1ccc(O)cc1O (stereo unspecified)"
outcome_measure = "IC50"
measurement = "45.4 µM (active)"


Query CN1CCN(Cc2coc3c(Cl)cc(Cl)cc3c2=O)CC1 yields IC50 of 79 µM (active)

---

I'd appreciate it if you could supply IC50 values for the items below.
- Tested target: Small ubiquitin-related modifier 1 (Homo sapiens, UniProt P63165)
- Sequence (P63165 whole entry): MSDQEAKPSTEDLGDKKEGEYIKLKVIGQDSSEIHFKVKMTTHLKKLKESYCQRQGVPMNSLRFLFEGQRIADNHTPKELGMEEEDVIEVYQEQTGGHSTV
- Experiment summary: inhibitors of SUMO1 peptide binding, dose response, biochemical, fluorescence polarization, uHTS hits (AID 624382)
- Format: functional
- Assay context: read-out: IC50_Mean
Activity calls are given as the source filed them.

[[record]]
molecule = "O=C(Nc1cc([N+](=O)[O-])ccc1O)c1cccc(C(=O)Nc2cc([N+](=O)[O-])ccc2O)c1"
tested_target = "Small ubiquitin-related modifier 1 (Homo sapiens, UniProt P63165)"
outcome_measure = "IC50"
measurement = "0.751 µM (active)"

[[record]]
molecule = "CN(C(=O)COC(=O)c1ccc(-c2ccc(O)cc2)cc1)C1CCS(=O)(=O)C1 (stereo unspecified)"
tested_target = "Small ubiquitin-related modifier 1 (Homo sapiens, UniProt P63165)"
outcome_measure = "IC50"
measurement = "> 66.6 µM (inactive)"

[[record]]
molecule = "C=C(C)C(=O)Nc1cccc(C2=NOC3(C2)C[C@@H](C(N)=O)N(C(=O)CC(c2ccccc2)c2ccccc2)C3)c1 (stereo partly specified)"
tested_target = "Small ubiquitin-related modifier 1 (Homo sapiens, UniProt P63165)"
outcome_measure = "IC50"
measurement = "> 66.6 µM (inactive)"

[[record]]
molecule = "CCN(CC)CCOC(=O)c1ccc(N/C=C(/C#N)c2nc(-c3ccc4c(c3)OCO4)cs2)cc1"
tested_target = "Small ubiquitin-related modifier 1 (Homo sapiens, UniProt P63165)"
outcome_measure = "IC50"
measurement = "> 66.6 µM (inactive)"

[[record]]
molecule = "CN(C(=O)COC(=O)c1cc(-c2ccco2)nc2ccccc12)C1CCS(=O)(=O)C1 (stereo unspecified)"
tested_target = "Small ubiquitin-related modifier 1 (Homo sapiens, UniProt P63165)"
outcome_measure = "IC50"
measurement = "> 66.6 µM (inactive)"


Let us examine a further case.
For reference, reported IC50 for CCOC(=O)c1cc(-c2ccc(N3CCOCC3)cc2)nn1-c1ccccc1C(=O)O stands at > 66.6 µM (inactive)
